Assay: Apparent volume of distribution in mouse at 2 mg/kg, iv or 10 mg/kg, po
Type: ADME, organism-based
Conditions: in vivo, read-out: Vz
PROPERTY: Vd (L/kg)

* CS(=O)(=O)c1ccc(-n2nc(-c3cnc4[nH]ccc4c3)c3c(N)ncnc32)cc1 | 2.15

* * *

Target: Tyrosine-protein kinase BTK (Homo sapiens, UniProt Q06187)
Sequence (Q06187 whole entry): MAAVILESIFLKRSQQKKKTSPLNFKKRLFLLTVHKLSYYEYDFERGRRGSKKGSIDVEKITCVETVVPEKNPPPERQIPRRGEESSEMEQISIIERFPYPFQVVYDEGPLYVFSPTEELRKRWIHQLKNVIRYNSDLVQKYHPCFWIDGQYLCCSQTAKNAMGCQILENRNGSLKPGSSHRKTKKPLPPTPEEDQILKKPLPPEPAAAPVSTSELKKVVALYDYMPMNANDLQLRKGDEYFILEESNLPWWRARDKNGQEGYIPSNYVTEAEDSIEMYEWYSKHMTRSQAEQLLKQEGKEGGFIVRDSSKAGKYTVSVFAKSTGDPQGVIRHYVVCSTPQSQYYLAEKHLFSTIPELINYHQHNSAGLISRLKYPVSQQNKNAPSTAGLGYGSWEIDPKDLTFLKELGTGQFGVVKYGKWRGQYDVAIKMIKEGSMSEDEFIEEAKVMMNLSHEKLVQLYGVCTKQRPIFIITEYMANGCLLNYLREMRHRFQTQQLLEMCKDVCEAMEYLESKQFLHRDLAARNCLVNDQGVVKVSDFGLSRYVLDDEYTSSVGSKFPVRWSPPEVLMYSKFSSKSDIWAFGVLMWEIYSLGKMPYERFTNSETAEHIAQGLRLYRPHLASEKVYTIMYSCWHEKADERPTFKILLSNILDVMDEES
pIC50: −log10 of the molar value.
PROPERTY: pIC50

• Nc1nc2c(s1)CC(n1nc(-c3cc(F)c4[nH]ccc4c3)c3c(N)ncnc31)CC2 (stereo unspecified) = 7.66

* * *

Target: Serine/threonine-protein kinase ATR (Homo sapiens)
Sequence (Q13535 whole entry): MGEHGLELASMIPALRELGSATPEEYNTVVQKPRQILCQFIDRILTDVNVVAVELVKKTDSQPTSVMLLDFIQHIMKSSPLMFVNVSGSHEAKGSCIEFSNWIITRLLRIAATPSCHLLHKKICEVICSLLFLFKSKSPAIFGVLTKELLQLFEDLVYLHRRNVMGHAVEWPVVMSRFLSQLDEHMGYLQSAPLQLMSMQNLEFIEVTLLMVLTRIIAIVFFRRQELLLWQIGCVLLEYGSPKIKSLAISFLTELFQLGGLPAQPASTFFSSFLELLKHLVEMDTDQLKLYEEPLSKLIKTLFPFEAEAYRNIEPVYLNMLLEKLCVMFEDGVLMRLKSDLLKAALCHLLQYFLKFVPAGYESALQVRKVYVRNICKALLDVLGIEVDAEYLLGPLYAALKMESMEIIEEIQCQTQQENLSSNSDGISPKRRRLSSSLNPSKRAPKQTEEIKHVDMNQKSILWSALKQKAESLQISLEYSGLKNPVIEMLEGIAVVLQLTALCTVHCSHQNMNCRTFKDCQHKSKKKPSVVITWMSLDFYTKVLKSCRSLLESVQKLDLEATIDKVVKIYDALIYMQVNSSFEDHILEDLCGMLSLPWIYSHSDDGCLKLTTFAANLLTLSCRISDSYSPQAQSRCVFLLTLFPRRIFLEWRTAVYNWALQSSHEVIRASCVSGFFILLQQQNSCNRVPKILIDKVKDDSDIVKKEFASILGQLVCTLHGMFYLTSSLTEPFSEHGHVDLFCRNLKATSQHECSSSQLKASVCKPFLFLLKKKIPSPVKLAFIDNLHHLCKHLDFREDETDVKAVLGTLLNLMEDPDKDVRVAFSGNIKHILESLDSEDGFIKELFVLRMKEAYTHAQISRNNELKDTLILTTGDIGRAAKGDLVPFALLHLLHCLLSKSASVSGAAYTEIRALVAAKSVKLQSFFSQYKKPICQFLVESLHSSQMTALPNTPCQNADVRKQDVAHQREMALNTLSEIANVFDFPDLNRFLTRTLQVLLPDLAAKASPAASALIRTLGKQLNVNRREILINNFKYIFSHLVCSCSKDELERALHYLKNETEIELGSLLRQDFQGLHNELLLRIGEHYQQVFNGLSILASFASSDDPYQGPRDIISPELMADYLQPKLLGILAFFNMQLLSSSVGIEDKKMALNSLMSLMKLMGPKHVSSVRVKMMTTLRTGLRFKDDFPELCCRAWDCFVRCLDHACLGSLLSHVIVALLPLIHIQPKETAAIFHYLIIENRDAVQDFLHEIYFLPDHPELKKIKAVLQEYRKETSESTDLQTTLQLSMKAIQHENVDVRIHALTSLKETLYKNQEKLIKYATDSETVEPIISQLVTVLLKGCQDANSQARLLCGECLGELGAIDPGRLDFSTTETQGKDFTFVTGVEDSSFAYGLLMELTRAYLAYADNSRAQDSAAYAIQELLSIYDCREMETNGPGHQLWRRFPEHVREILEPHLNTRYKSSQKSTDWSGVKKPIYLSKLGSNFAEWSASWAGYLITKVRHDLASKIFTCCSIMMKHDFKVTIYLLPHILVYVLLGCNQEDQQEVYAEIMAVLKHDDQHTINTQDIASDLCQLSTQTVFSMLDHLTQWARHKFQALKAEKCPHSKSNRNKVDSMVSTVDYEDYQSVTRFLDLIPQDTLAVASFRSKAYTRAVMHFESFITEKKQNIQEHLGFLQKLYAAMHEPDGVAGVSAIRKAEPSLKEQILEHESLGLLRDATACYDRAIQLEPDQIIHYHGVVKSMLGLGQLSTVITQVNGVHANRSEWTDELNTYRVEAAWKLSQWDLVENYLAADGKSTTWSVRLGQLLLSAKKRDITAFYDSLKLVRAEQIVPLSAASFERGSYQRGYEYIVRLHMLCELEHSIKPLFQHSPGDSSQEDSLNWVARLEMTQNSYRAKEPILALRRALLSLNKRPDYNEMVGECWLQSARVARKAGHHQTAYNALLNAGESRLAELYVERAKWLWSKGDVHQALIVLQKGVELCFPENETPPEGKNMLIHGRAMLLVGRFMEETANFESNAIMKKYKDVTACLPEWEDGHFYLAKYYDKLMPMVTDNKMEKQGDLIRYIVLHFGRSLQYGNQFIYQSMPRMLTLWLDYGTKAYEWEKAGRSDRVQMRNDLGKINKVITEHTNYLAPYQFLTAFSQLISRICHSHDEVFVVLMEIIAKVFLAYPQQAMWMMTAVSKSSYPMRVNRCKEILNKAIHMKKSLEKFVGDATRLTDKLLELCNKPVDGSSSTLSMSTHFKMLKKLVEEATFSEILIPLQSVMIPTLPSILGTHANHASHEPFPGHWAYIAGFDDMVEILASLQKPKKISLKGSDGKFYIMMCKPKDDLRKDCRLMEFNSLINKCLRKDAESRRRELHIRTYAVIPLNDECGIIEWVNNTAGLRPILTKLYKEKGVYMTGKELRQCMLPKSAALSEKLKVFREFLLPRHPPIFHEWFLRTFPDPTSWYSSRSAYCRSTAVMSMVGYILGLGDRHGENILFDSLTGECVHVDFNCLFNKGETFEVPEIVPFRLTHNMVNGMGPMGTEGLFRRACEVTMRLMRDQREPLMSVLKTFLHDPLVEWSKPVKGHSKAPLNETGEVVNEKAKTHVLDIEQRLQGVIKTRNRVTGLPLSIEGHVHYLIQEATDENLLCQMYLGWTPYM
Assay: Inhibition of human recombinant FLAG-tagged full length ATR expressed in mammalian cell line co-expressing human recombinant cMyc-tagged full length ATRIP
Rule: IC50 below 1000 nM gives Satisfied. Equal to or above 1000 nM gives Not satisfied.

• Nc1ncnc2c1c(-c1cnc3[nH]ccc3c1)nn2C1CCc2ccccc2C1 (stereo in doubt; 1') = Satisfied
• Nc1ncnc2c1c(-c1c[nH]c3ncccc13)nn2C1CCc2ccccc2C1 (racemic) = Not satisfied
• Nc1ncnc2c1c(-c1cnc3[nH]ccc3c1)nn2C1Cc2ccccc2C1 = Satisfied
• Nc1ncnc2c1c(-c1cnc3[nH]ccc3c1)nn2C1CCc2ccccc2C1 (racemic) = Satisfied
• Nc1nc2c(s1)CC(n1nc(-c3cc(F)c4[nH]ccc4c3)c3c(N)ncnc31)CC2 (stereo not given) = Not satisfied
• CS(=O)(=O)c1ccc(-n2nc(-c3cnc4[nH]ccc4c3)c3c(N)ncnc32)cc1 = Satisfied
• Nc1ncnc2c1c(-c1cnc3[nH]ccc3c1)nn2C1CCc2ccccc2C1 (stereo in doubt; 1) = Satisfied
• Nc1ncnc2c1c(-c1cnc3[nH]c(=O)ccc3c1)nn2C1CCc2ccccc2C1 (racemic) = Not satisfied
• Nc1ncnc2c1c(-c1cnc3cc[nH]c3c1)nn2C1CCc2ccccc2C1 (racemic) = Not satisfied
• Nc1ccnc2c1c(-c1cnc3[nH]ccc3c1)nn2C1CCc2ccccc2C1 (racemic) = Not satisfied
• c1ccc2c(c1)CCC(n1nc(-c3cnc4[nH]ccc4c3)c3cncnc31)C2 (racemic) = Not satisfied
• Nc1ncnc2c1c(-c1ccc(N3CCCC3)nc1)nn2C1CCc2ccccc2C1 (racemic) = Not satisfied
• CS(=O)(=O)N1CCC(n2nc(-c3cnc4[nH]ccc4c3)c3c(N)ncnc32)CC1 = Not satisfied
• Nc1ncnc2c1c(-c1cccnc1)nn2C1CCc2ccccc2C1 (racemic) = Not satisfied
• Nc1ncnc2c1c(-c1ccc(Br)c(O)c1)nn2C1Cc2ccccc2C1 = Not satisfied
• Nc1ccc(-c2nn(C3CCc4ccccc4C3)c3ncnc(N)c23)cn1 (racemic) = Not satisfied
• Nc1ncnc2c1c(-c1ccc(Br)c(O)c1)nn2C1CCc2ccccc21 (stereo not given) = Not satisfied
• Nc1ncnc2c1c(-c1cnc3[nH]ccc3c1)nn2C1CCCC1 = Not satisfied
• Cn1ccc2cc(-c3nn(C4CCc5ccccc5C4)c4ncnc(N)c34)cnc21 (racemic) = Satisfied
• Nc1ncnc2c1c(-c1ccc3[nH]ccc3c1)nn2C1CCc2ccccc2C1 (racemic) = Not satisfied

* * *

Below, each of the compounds is paired with its reported remaining at 0.5 h, 1 µM value.
Assay: Metabolic stability in rat liver microsomes assessed as compound remaining at 1 uM in presence of NADPH as cofactor measured after 30 mins by LC-MS/MS method
Type: ADME, microsome
Settings: read-out: Stability
PROPERTY: remaining at 0.5 h, 1 µM

* CS(=O)(=O)c1ccc(-n2nc(-c3cnc4[nH]ccc4c3)c3c(N)ncnc32)cc1 | 63%
* CNCc1ccc(-c2cc(-c3nc(-c4ccc(S(=O)(=O)C(C)C)cc4)cnc3N)on2)cc1 | 80%

Data credit: ChEMBL document CHEMBL4190187
